System: HT29 tumor cells
Assay: In vitro cell proliferation inhibition assay (CellTiterGlo)
Assay type: cell-based
quantity-measured: IC50 (nM)
One number for each entry, in nM.

Q: Which IC50 reading was recorded for the molecule Cn1nccc1Nc1nccc(-c2nc3c(s2)[C@@]2(CCOC2)N(Cc2cccc(Cl)c2)C3=O)n1 [WX001A] ?
Ans: 21

###

Assay: In vivo DMPK assay in mouse
Details: mouse, plasma, iv; female BALB/c mice, 1 mg/kg intravenously; read-out: Cl (clearance rate)
Answer each item with its documented clearance.
Give bare numbers, in mL/min/kg.

compound | clearance (mL/min/kg)
Cc1cnc(Nc2ccnn2C)nc1-c1nc2c(s1)C1(COC1)N(Cc1cccc(Cl)c1)C2=O [WX007] | 14.4

Q: Which clearance reading was recorded for the compound Cc1cnc(Nc2ccnn2C)nc1-c1nc2c(s1)C1(COC1)N(Cc1cccc(F)c1)C2=O [WX006] ?
Ans: 17.2

###

Assay: In vivo DMPK assay in mouse
Details: mouse, plasma, iv; female BALB/c mice, 1 mg/kg intravenously; read-out: Vdss (distribution volume)
Source text: Assay Example 3. Assay of In Vivo DMPK In vivo DMPK assay in mouse Female BALB/c mice were used as assay animals to determine the blood concentration of compounds and evaluate the pharmacokinetic behavior after a single administration. Eight healthy adult female BALB/c mice were selected, wherein 4 mice were in the intravenous injection group and 4 mice were in the oral group. […] The clear solution was filtered by a microporous membrane, and then ready for use. […]
quantity-measured: Vd
// return the numeric value with its unit appended

smiles-representation | Vd
Cc1cnc(Nc2ccnn2C)nc1-c1nc2c(s1)C1(COC1)N(Cc1cccc(Cl)c1)C2=O | 1.7 L/kg

We next turn to a different molecule, shown below.
Q: Which Vd reading was recorded for the molecule Cc1cnc(Nc2ccnn2C)nc1-c1nc2c(s1)C1(COC1)N(Cc1cccc(F)c1)C2=O ?
Ans: 1.7 L/kg

###

Answer each item with its documented pIC50.
Biological target: ERK2 kinase (Homo sapiens (Human), UniProt P28482)
Sequence (P28482 whole entry): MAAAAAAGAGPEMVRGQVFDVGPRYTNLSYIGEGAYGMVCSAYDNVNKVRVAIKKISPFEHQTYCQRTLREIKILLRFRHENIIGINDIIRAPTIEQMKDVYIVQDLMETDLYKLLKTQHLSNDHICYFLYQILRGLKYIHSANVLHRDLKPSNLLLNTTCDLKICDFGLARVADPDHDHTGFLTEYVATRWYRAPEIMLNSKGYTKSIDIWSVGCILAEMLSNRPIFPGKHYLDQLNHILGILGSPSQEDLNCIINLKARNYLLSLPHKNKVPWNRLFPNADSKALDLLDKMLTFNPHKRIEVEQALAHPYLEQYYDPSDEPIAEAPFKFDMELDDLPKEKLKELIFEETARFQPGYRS
Give bare numbers, as −log10 of the molar value.

For orientation, consider the following solved cases.
compound | quantity-measured | result-number
Cc1cnc(Nc2ccnn2C)nc1-c1nc2c(s1)C1(COC1)N(Cc1cccc(F)c1)C2=O [WX006] | pIC50 | 9.03
Cn1nccc1Nc1nccc(-c2nc3c(s2)C2(COC2)N(Cc2cccc(Cl)c2)C3=O)n1 [WX005] | pIC50 | 9.44
Cn1nccc1Nc1nccc(-c2nc3c(s2)[C@@]2(CCOC2)N(Cc2cccc(Cl)c2)C3=O)n1 [WX001A] | pIC50 | 9.51

// for each compound below, give its pIC50
1. O=C1c2nc(-c3ccnc(NC4CCOCC4)n3)sc2C2(CCOCC2)N1Cc1cccc(Cl)c1 [WX003]
2. Cn1nccc1Nc1nccc(-c2nc3c(s2)C2(CCOCC2)N(Cc2cccc(Cl)c2)C3=O)n1 [WX002]

Ans:
1. 9.54
2. 9.40

###

Assay: In vivo DMPK assay in mouse
Conditions: mouse, po; female BALB/c mice, 3 mg/kg orally, plasma; read-out: Cmax (maximum concentration)
Answer each item with its documented Cmax.
Answers are plain numbers, in nM.

compound | result-number
Cc1cnc(Nc2ccnn2C)nc1-c1nc2c(s1)C1(COC1)N(Cc1cccc(Cl)c1)C2=O [WX007] | 595

Q: Which Cmax reading was recorded for the compound Cc1cnc(Nc2ccnn2C)nc1-c1nc2c(s1)C1(COC1)N(Cc1cccc(F)c1)C2=O [WX006] ?
Ans: 1400
